Entries and their pIC50
Target: Amyloid-beta precursor protein (Homo sapiens)
Sequence (P05067 whole entry): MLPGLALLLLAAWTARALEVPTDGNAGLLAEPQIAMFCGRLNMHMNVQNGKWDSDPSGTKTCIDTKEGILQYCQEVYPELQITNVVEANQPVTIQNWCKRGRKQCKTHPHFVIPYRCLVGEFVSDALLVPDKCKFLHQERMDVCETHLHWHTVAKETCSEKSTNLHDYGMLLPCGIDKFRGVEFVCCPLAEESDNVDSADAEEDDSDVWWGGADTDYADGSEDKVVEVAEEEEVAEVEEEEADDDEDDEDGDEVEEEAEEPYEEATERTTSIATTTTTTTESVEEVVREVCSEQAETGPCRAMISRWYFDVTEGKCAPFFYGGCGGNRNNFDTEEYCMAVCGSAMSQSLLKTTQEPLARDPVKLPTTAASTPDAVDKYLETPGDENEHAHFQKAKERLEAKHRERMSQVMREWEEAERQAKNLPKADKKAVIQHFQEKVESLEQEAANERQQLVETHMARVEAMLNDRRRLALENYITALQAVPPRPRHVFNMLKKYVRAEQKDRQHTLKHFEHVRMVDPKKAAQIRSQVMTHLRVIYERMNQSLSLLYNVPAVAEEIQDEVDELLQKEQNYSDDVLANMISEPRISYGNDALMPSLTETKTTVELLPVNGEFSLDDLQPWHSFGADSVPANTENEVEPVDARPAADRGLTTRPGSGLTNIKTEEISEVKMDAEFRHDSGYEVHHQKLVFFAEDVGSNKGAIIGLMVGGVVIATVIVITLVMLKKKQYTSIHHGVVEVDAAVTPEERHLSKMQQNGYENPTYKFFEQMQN
Experiment: Inhibition of amyloid beta aggregation (unknown origin) after 4 hrs by thioflavin S assay in presence of Zn2+
pIC50: −log10 of the molar value.
Property Name: pIC50

                                   compound  censoring_operator  numeric_value
0  O=C(O)CN(CCN(CC(=O)O)CC(=O)O)CC(=O)O [EDETIC ACID]                   =           5.11
1  Cc1nc2c(/C=C/C(=O)NO)cccc2c(=O)n1-c1ccccc1                   <           4.30
2                   O=C(O)c1cccnc1 [NIACIN]                   =           4.36
3  Cc1nc2cccc(/C=C/C(=O)NO)c2c(=O)n1-c1ccccc1                   <           4.30
4  Cc1nc2ccc(/C=C/C(=O)NO)cc2c(=O)n1-c1ccccc1                   <           4.30
